Values were extracted from patent EP0781283B1.

Entries annotated with measured inhibition at 10 µM
Test system: Guinea Pig Eosinophils
Experiment: Chemotaxis inhibition assay (LTB4-induced chemotaxis of guinea pig eosinophils)
Format: cell-based
Conditions: Cavia porcellus, Eosinophil; test drug final concentration 10^-5 M; LTB4 10^-8 M; 2 hours; read-out: Chemotaxis Inhibition Rate (%)

molecule	units	inhibition at 10 µM
CCCc1cc2ncnn2nc1OCC(C)(C)CS(N)(=O)=O	%	24
CC(C)Cc1cc2ncnn2nc1OCC(C)(C)CS(N)(=O)=O	%	27
CCC(CC)(COc1nn2ncnc2cc1C(C)C)CS(N)(=O)=O	%	23
Cc1cc2ncnn2nc1OCC(C)(C)CS(N)(=O)=O [Reference compound, reference compound]	%	12
CCCCCCc1cc2ncnn2nc1OCC(C)(C)CS(N)(=O)=O	%	24
